# targetDesc: human LPA1 receptor (Homo sapiens, UniProt Q92633)
# Construct: The 1.1 kb cDNA encoding the full-length coding region of human LPA1 was subcloned into the pRK5; expressed in transfected cells; host or cells: HEK293 or CHO cells
# Sequence (Q92633 whole entry): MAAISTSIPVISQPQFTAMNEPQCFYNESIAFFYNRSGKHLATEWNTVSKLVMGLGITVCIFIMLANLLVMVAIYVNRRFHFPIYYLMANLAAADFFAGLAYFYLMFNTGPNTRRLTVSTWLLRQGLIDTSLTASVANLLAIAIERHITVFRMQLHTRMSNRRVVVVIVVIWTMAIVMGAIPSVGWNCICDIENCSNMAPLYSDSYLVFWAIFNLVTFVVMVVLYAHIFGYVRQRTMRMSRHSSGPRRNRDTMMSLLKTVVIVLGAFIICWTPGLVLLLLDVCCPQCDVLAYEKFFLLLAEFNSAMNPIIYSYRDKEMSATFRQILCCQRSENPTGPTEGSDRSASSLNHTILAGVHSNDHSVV
# assayRemarks: calcium flux assay (LPA Receptor Assays)
# Format: cell-based
measuredEndpoint: pIC50
# pIC50: negative log10 of molar concentration; output just the value

Here's what some known entries look like.
>  <molecule>
Cc1noc(-c2ccc(NC(=O)CCC(=O)O)cc2)c1NC(=O)OC(C)c1ccccc1Cl (stereo not shown)

>  <pIC50>
7.15

$$$$
>  <molecule>
Cc1noc(-c2ccc(NC(=O)c3ccccc3)cc2)c1NC(=O)OC(C)c1ccccc1Cl (stereo not shown)

>  <pIC50>
5.66

$$$$
>  <molecule>
Cc1noc(-c2ccc3[nH]ncc3c2)c1NC(=O)OC(C)c1ccccc1Cl (stereo not shown)

>  <pIC50>
6.26

$$$$
>  <molecule>
Cc1noc(-c2ccc(NS(C)(=O)=O)cc2)c1NC(=O)O[C@H](C)c1ccccc1Cl

>  <pIC50>
7.26

$$$$
>  <molecule>
Cc1noc(-c2ccc(NC(=O)C3CC3)cc2)c1NC(=O)OC(C)c1ccccc1Cl (stereo not shown)

>  <pIC50>
5.94

$$$$

Can you look up the measured pIC50 of Cc1noc(-c2ccc(NS(C)(=O)=O)cc2)c1NC(=O)OC(C)c1ccc(F)cc1Cl (stereo not shown) for me?
7.22

Can you look up the measured pIC50 of Cc1noc(-c2ccc(NC(=O)CCC(=O)O)cc2F)c1NC(=O)O[C@H](C)c1ccccc1Cl for me?
7.15

Can you look up the measured pIC50 of Cc1noc(-c2ccc(NS(C)(=O)=O)cc2)c1NC(=O)OC(C)c1ccccc1Cl (stereo not shown) for me?
7.05

Can you look up the measured pIC50 of Cc1noc(-c2ccc(NS(=O)(=O)CCC(=O)O)cc2)c1NC(=O)OC(C)c1ccccc1Cl (stereo not shown) for me?
6.96

Can you look up the measured pIC50 of Cc1noc(-c2ccc(NS(C)(=O)=O)cc2F)c1NC(=O)OC(C)c1ccccc1Cl (stereo not shown) for me?
7.15
